These data points were gathered from ChEMBL document CHEMBL3286122.

Field: remaining at 0.5 h. Provide a value for each of the compounds that follow.
assay: Metabolic stability in rat liver microsomes assessed as compound remaining after 30 mins; assay type: ADME; conditions: read-out: Stability
Answer with a number only, understood to be in %.

Task item: Please supply the value of reported remaining at 0.5 h for the item COc1ccc(Cl)cc1NC(=O)N1CCN(c2ncccc2C(F)(F)F)CC1
Reply: 1

Task item: Please supply the value of reported remaining at 0.5 h for the item CC1=C(/C=C/C(C)=C/C=C/C(C)=C/C(=O)Nc2ccc(O)cc2)C(C)(C)CCC1 [FENRETINIDE]
Reply: 67

Task item: Please supply the value of reported remaining at 0.5 h for the item O=C(O)c1ccccc1NC(=O)N1CCN(c2ncccc2C(F)(F)F)CC1
Reply: 51

====

molecular target: Retinol-binding protein 4 (Homo sapiens, UniProt P02753); test: Inhibition of human recombinant RBP4-transthyretin interaction by FRET analysis
// boundary case: IC50 equal to 20 nM maps to No; strictly smaller maps to Yes

Task item: Lab note: IC50 threshold 20 nM. Does this compound come in strictly under it? COc1ccc(Cl)cc1NC(=O)N1CCN(c2ccccc2C(F)(F)F)CC1
Reply: Yes

Task item: Lab note: IC50 threshold 20 nM. Does this compound come in strictly under it? COC(=O)c1cccc(C(=O)N2CCC(c3ccccc3C(F)(F)F)CC2)c1
Reply: No

Task item: Lab note: IC50 threshold 20 nM. Does this compound come in strictly under it? Cn1cnc(C(=O)N2CCC(c3ccccc3C(F)(F)F)CC2)c1
Reply: Yes

Task item: Lab note: IC50 threshold 20 nM. Does this compound come in strictly under it? COc1ccc(Cl)cc1C(=O)N1CCN(c2ncnc3sc4c(c23)CCC4)C(C)C1 (stereo unspecified)
Reply: No

Task item: Lab note: IC50 threshold 20 nM. Does this compound come in strictly under it? COc1ccc(Cl)cc1NC(=O)N1CCN(c2ncccc2C(F)(F)F)CC1C (stereo unspecified)
Reply: No

Task item: Lab note: IC50 threshold 20 nM. Does this compound come in strictly under it? COc1ccc(Cl)cc1NC(=O)N1CCN(c2ccccc2Cl)CC1
Reply: No

Task item: Lab note: IC50 threshold 20 nM. Does this compound come in strictly under it? COc1ccc(Cl)cc1NC(=O)N1CCN(c2ccccn2)CC1
Reply: No

Task item: Lab note: IC50 threshold 20 nM. Does this compound come in strictly under it? COc1ccc(Cl)cc1NC(=O)N1CCC(c2ccccc2C(F)(F)F)CC1
Reply: No

Task item: Lab note: IC50 threshold 20 nM. Does this compound come in strictly under it? COC(=O)c1ccccc1NC(=O)N1CCC(c2ccccc2C(F)(F)F)CC1
Reply: Yes

Task item: Lab note: IC50 threshold 20 nM. Does this compound come in strictly under it? COc1ccc(Cl)cc1NC(=O)N1CCN(CCc2ccccc2)CC1
Reply: No

Task item: Lab note: IC50 threshold 20 nM. Does this compound come in strictly under it? COc1ccc(Cl)cc1NC(=O)N1CCCN(c2ncccc2C(F)(F)F)CC1
Reply: No

====

assay: Cmax in mouse at 30 mg/kg, po; type: ADME, organism-based; design: dose 30 mg/kg, route oral; details: in vivo
Measurement Type: Cmax (ng/mL)
Answer with a number only, understood to be in ng/mL.

Task item: Please supply the value of reported Cmax for the item CC1=C(/C=C/C(C)=C/C=C/C(C)=C/C(=O)Nc2ccc(O)cc2)C(C)(C)CCC1 [FENRETINIDE]
Reply: 65
